- Protocol description: physchem
- Settings: organic solvent or mixture, thermodynamic from solid, Solubility in CHCl3
Readout: solubility

# input // solubility lookup, key: `N#Cc1ccc(N(c2ccc(C#N)cc2)c2ccc(N(c3ccc(N4C(=O)C=CC4=O)cc3)c3ccc(N4C(=O)C=CC4=O)cc3)cc2)cc1`
# output > 1000 µg/mL

###

- Protocol description: physchem
- Settings: organic solvent or mixture, thermodynamic from solid, Solubility in DMSO
Readout: solubility

# input Please report the recorded solubility for `N#Cc1ccc(N(c2ccc(C#N)cc2)c2ccc(N(c3ccc(N4C(=O)C=CC4=O)cc3)c3ccc(N4C(=O)C=CC4=O)cc3)cc2)cc1` .
# output > 1000 µg/mL

###

- Protocol description: physchem
- Settings: organic solvent or mixture, thermodynamic from solid, Solubility in NMP
Readout: solubility

# input Could you tell me which solubility is on file for `N#Cc1ccc(N(c2ccc(C#N)cc2)c2ccc(N(c3ccc(N4C(=O)C=CC4=O)cc3)c3ccc(N4C(=O)C=CC4=O)cc3)cc2)cc1` ?
# output > 1 mg/mL

###

- Protocol description: physchem
- Settings: organic solvent or mixture, thermodynamic from solid, Solubility in MeOH
Readout: solubility

# input I would be grateful if you could share the reported solubility for N#Cc1ccc(N(c2ccc(C#N)cc2)c2ccc(N(c3ccc(N4C(=O)C=CC4=O)cc3)c3ccc(N4C(=O)C=CC4=O)cc3)cc2)cc1 [Compound 6] .
# output < 1000 µg/mL

###

- Protocol description: physchem
- Settings: organic solvent or mixture, thermodynamic from solid, Solubility in THF
Readout: solubility

# input solubility lookup needed for N#Cc1ccc(N(c2ccc(C#N)cc2)c2ccc(N(c3ccc(N4C(=O)C=CC4=O)cc3)c3ccc(N4C(=O)C=CC4=O)cc3)cc2)cc1 [Compound 6] , thanks.
# output > 1000 µg/mL
